Where do these numbers come from? They come from patent US20060167001A1.

Would you mind telling me the reported melting point of each entry?

IN: Item under review: COc1ccc(C2=NN(C3CCN(C(C)=O)CC3)C(=O)CC2C)cc1OC (stereo not shown) . Reported melting point?
OUT: 149 to 152 °C

IN: Item under review: COc1ccc(C2=NN(C3CCN(C(=O)N4CCN(C)CC4)CC3)C(=O)CC2)cc1OC.Cl . Reported melting point?
OUT: 151 to 154 °C

IN: Item under review: COc1ccc(C2=NN(C3CCN(S(=O)(=O)c4ccc(C)cc4)CC3)C(=O)CC2)cc1OC . Reported melting point?
OUT: 179 to 184 °C

IN: Item under review: COc1ccc(C2=NN(C3CCN(CC(=O)N4CCN(C)CC4)CC3)C(=O)CC2)cc1OC.Cl.Cl . Reported melting point?
OUT: 194 to 199 °C

----------
Would you mind telling me the reported melting point of each entry?

IN: Item under review: COc1ccc(C2=NN(C3CCNCC3)C(=O)CC2C)cc1OC.Cl (stereo not shown) . Reported melting point?
OUT: 91 to 95 °C

IN: Item under review: CCN1CCN(C(=O)N2CCC(N3N=C(c4ccc(OC)c(OC)c4)CCC3=O)CC2)C(=O)C1=O [Compound 7] . Reported melting point?
OUT: 201 to 203 °C

IN: Item under review: COc1ccc(C2=NN(C3CCN(S(=O)(=O)c4ccc(Cl)cc4)CC3)C(=O)CC2)cc1OC [Compound 13] . Reported melting point?
OUT: 185 to 186 °C

IN: Item under review: COc1ccc(C2=NN(C3CCN(S(=O)(=O)N(C)C)CC3)C(=O)CC2)cc1OC [Compound 22] . Reported melting point?
OUT: 103 to 106 °C

IN: Item under review: COc1ccc(C2=NN(C3CCN(C(=O)NC(C)(C)C)CC3)C(=O)CC2)cc1OC [Compound 26] . Reported melting point?
OUT: 76 to 78 °C

IN: Item under review: COc1ccc(C2=NN(C3CCN(CC(=O)N(C)C)CC3)C(=O)CC2)cc1OC.Cl [Compound 27] . Reported melting point?
OUT: 121 to 122 °C

IN: Item under review: COc1ccc(C2=NN(C3CCN(S(=O)(=O)c4cccc5c(N(C)C)cccc45)CC3)C(=O)CC2)cc1OC [Compound 9] . Reported melting point?
OUT: 191 to 193 °C

IN: Item under review: COc1ccc(C2=NN(C3CCN(C(=O)CN4CCN(C(c5ccccc5)c5ccccc5)CC4)CC3)C(=O)CC2)cc1OC.Cl.Cl [Compound 31] . Reported melting point?
OUT: 126 to 127 °C

IN: Item under review: COc1ccc(C2=NN(C3CCN(S(=O)(=O)Cc4ccccc4)CC3)C(=O)CC2)cc1OC [Compound 14] . Reported melting point?
OUT: 114 °C

IN: Item under review: COc1ccc(C2=NN(C3CCN(Cc4cccnc4)CC3)C(=O)CC2C)cc1OC.Cl.Cl (stereo not shown) [Compound 6] . Reported melting point?
OUT: 241 to 244 °C

IN: Item under review: COc1ccc(C2=NN(C3CCN(C(=O)c4ccccc4)CC3)C(=O)CC2)cc1OC [Compound 23] . Reported melting point?
OUT: 152 to 154 °C

IN: Item under review: COc1ccc(C2=NN(C3CCN(S(=O)(=O)c4ccccc4OC(F)(F)F)CC3)C(=O)CC2)cc1OC [Compound 21] . Reported melting point?
OUT: 118 to 119 °C

IN: Item under review: COc1ccc(C2=NN(C3CCN(C(=O)c4c(Cl)cc(Cl)cc4Cl)CC3)C(=O)CC2)cc1OC [Compound 25] . Reported melting point?
OUT: 156 to 159 °C

IN: Item under review: COc1ccc(C2=NN(C3CCN(S(C)(=O)=O)CC3)C(=O)CC2)cc1OC [Compound 12] . Reported melting point?
OUT: 164 to 166 °C

IN: Item under review: COc1ccc(S(=O)(=O)N2CCC(N3N=C(c4ccc(OC)c(OC)c4)CCC3=O)CC2)cc1 [Compound 15] . Reported melting point?
OUT: 197 to 198 °C

IN: Item under review: COc1ccc(C2=NN(C3CCN(C(=O)N4CCOCC4)CC3)C(=O)CC2C)cc1OC (stereo not shown) [Compound 5] . Reported melting point?
OUT: 137 to 138 °C
